# Experimental System: Cannabinoid receptor 1 (Homo sapiens)
# Sequence (P21554 whole entry): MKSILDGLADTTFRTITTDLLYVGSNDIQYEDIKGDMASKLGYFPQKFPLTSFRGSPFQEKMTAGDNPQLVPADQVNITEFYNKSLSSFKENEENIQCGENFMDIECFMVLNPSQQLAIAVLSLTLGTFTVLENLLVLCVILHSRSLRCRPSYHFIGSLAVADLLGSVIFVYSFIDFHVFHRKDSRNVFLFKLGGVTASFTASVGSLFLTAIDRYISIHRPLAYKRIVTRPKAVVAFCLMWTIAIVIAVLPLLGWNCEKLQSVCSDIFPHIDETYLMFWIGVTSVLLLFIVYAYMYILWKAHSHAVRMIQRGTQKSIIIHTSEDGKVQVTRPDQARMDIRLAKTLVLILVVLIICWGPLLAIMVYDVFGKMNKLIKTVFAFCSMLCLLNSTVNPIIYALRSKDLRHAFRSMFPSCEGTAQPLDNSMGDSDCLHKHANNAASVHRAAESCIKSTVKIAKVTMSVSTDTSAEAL
# Protocol Summary: Agonist activity at human CB1 receptor expressed in CHO-K1 cells assessed as maximum efficacy incubated for 20 mins measured after 60 mins addition of cAMP detect reagent by HTRF analysis relative to control
# Assay type: functional, cell-based
# Experimental Parameters: filed as agonist
Below is a list of entries, each paired with its recorded Emax value.
Use % as the unit, but write only the number.

Give recorded Emax. CC(C)(C)[C@@H](CO)NC(=O)c1nn(-c2cnccn2)c2c1C[C@H]1CCC2O1 (single isomer, unassigned) 100

Give recorded Emax. CC(C)(C)NC(=O)c1nn(-c2ccc(F)cc2F)c2c1CC1CCC2O1 (centres undefined) 95.6

Give recorded Emax. O=C(NC12CC3CC(CC1C3)C2)c1nn(-c2ccc(F)cc2F)c2c1CC1CCC2O1 (centres undefined) 99.1

Give recorded Emax. CC(C)(C)NC(=O)c1c2c(nn1-c1c[n+]([O-])ccn1)CC1CCC2O1 (centres undefined) 80.3

Give recorded Emax. CC(C)(C)c1nnc(-c2nn(-c3c[n+]([O-])ccn3)c3c2CC2CCC3O2)s1 (centres undefined) 99

Give recorded Emax. O=C(NC12CC3CC(CC1C3)C2)c1nn(-c2cnccn2)c2c1CC1CCC2O1 (centres undefined) 100

Give recorded Emax. O=C(NC12CCC(CC1)CC2)c1nn(-c2c[n+]([O-])ccn2)c2c1CC1CCC2O1 (centres undefined) 99.7

Give recorded Emax. CC(C)(C)NC(=O)c1c2c(nn1-c1ccc(F)cc1F)C1CCC(C2)O1 (centres undefined) 72.8

Give recorded Emax. CC(C)(C)NC(=O)c1c2c(nn1-c1cnccn1)CC1CCC2O1 (centres undefined) 85.8

Give recorded Emax. O=C(NC1(C(F)(F)F)CCC1)c1nn(-c2cnccn2)c2c1CC1CCC2O1 (centres undefined) 100

Give recorded Emax. CC(C)(C)NC(=O)c1c2c(nn1-c1c[n+]([O-])ccn1)C1CCC(C2)O1 (centres undefined) 66.3

Give recorded Emax. O=C(NC12CC(C1)C2)c1nn(-c2c[n+]([O-])ccn2)c2c1CC1CCC2O1 (centres undefined) 100

Give recorded Emax. CC(C)(C)[C@@H](CO)NC(=O)c1nn(-c2cnccn2)c2c1C[C@@H]1CC[C@H]2O1 100

Give recorded Emax. CCC(C)(C)c1noc(-c2nn(-c3cnccn3)c3c2CC2CCC3O2)n1 (centres undefined) 99.8
